# credit: patent US6875761B2

Quick note: these are Ki numbers for system: serotonin 2 receptor (Rattus norvegicus, UniProt P14842)
Sequence (P14842 whole entry): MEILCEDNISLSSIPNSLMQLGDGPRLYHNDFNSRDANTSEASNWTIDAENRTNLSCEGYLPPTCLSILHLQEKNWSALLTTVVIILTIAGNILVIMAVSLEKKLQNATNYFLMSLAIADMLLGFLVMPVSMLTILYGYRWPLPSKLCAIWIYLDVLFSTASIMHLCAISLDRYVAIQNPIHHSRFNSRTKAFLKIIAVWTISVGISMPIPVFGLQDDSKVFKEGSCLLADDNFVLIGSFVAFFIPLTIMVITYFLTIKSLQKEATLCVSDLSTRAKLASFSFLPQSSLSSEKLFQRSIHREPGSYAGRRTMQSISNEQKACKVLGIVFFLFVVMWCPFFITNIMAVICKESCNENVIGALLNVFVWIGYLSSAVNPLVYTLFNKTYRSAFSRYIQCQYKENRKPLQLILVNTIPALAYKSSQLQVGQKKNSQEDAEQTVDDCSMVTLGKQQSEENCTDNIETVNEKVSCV
Structures can show the parent of a compound that is named as a salt.
Entry rule: numbers only, all in nM.

Check out these entries, answers already filled in.
- CCN1CCN(c2nc(-c3ccc4c(c3)CC(C)(CO)O4)cc3ccsc23)CC1 (stereo not shown) [Example 456, dihydrochloride]: 16.2
- CCN1CCN(c2nc(-c3ccc(CCCO)cn3)cc3ccccc23)CC1: 12.4
- CCN1CCN(c2nc(-c3ccc(CC(C)(C)CO)cc3)cc3ccccc23)CC1 [Example 389, Oxalate]: 7.3

Query compound follows.
Which Ki reading was recorded for the compound CCN1CCN(c2nc(-c3ccc(C(C)O)cc3)cc3sccc23)CC1 (stereo not shown) [Example 281, oxalate] ? 16.9

====

- system.tested: serotonin 1A receptor (Rattus norvegicus, UniProt P19327)
- Construct: To the receptor fraction of the hippocampus were added a test compound and 0.5 nM of [^3H]; 8-hydroxy-dipropylaminotetralin; from tissue; host or cells: rat hippocampus membrane fraction
- Sequence (P19327 whole entry): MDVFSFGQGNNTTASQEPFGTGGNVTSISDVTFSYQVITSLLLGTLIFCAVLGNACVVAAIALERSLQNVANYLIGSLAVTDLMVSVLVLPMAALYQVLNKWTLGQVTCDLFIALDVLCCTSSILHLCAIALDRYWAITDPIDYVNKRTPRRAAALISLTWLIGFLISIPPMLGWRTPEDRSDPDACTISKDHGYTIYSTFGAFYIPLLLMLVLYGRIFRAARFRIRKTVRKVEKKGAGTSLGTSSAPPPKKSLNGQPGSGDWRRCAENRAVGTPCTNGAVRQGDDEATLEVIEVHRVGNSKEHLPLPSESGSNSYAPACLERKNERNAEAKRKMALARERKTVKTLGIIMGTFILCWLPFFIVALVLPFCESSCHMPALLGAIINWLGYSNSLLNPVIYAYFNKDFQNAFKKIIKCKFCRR
- assay.remarks: Binding test on [3H] 8-hydroxy-dipropylaminotetralin, hippocampus receptor fraction
- Design: species or system SD rats
- condition.description: rat hippocampus receptor fraction, 0.5 nM [3H] 8-OH-DPAT, room temperature 30 min; read-out: 5HT1
pKi: −log10 of the molar value. Counter-ions that a name gives are not always drawn.
Outcome: fulfilled for pKi of at least 8; not fulfilled for anything lower.

A selection of reference data follows.
* CCNS(=O)(=O)Cc1ccc(-c2cc3ccccc3c(N3CCN(CC)CC3)n2)cc1 [Example 80, Hydrochloride] | fulfilled
* CCN1CCN(c2nc(-c3ccc(OC[C@@H](C)O)cc3)cc3ccsc23)CC1 [Example 435, dihydrochloride] | not fulfilled
* CCN1CCN(c2nc(-c3ccc(O)cc3)cc3ccccc23)CC1 [Example 7] | not fulfilled
* CCN1CCN(c2nc(-c3ccc(C4=CCC(O)CC4)cc3)cc3ccccc23)CC1 (stereo not shown) [Example 64, Hydrochloride] | not fulfilled

Could you verify whether the entry CCN1CCN(c2nc(-c3ccc(CCC(C)(C)O)c(F)c3)cc3ccccc23)CC1 [Example 416] shows pKi of no less than 8? not fulfilled

Another compound to look at: CCN1CCN(c2nc(-c3ccc(OCCCO)cc3)cc3sccc23)CC1 [Example 462, dihydrochloride] fulfilled

Another compound to look at: CCN1CCN(c2nc(CCCc3ccccc3OCCO)cc3ccccc23)CC1 [Example 110] not fulfilled

Another compound to look at: CCN1CCN(c2nc(-c3ccc(OC)c(CCCO)c3)cc3ccccc23)CC1 [Example 34, hydrochloride] not fulfilled

====

- system.tested: serotonin 1A receptor (Rattus norvegicus)
- Construct: To the receptor fraction of the hippocampus were added a test compound and 0.5 nM of [^3H]; 8-hydroxy-dipropylaminotetralin; from tissue; host or cells: rat hippocampus membrane fraction
- assay.remarks: Binding test on [3H] 8-hydroxy-dipropylaminotetralin, hippocampus receptor fraction
- Set-up: species or system SD rats
- condition.description: rat hippocampus receptor fraction, 0.5 nM [3H] 8-OH-DPAT, room temperature 30 min; read-out: 5HT1
Where a name gives a salt, the structure may show the parent alone.
Threshold 20 nM. Ki below it: rule met. Ki at it or above: rule not met.

* CCN1CCN(c2nc(/C=C/c3ccc(OC)cc3)cc3ccccc23)CC1 [Example 190, Dihydrochloride] | rule not met

Lab log: compare recorded Ki with 20 nM; is it strictly lower for CCN1CCN(c2nc(-c3ccc(N4C[C@@H](C)O[C@@H](C)C4)nc3)cc3ccccc23)CC1 [Example 149, trihydrochloride] ? rule not met

Another compound to look at: CCN1CCN(c2nc(-c3ccc(N4CC[S+]([O-])CC4)nc3)cc3ccccc23)CC1 [Example 151, trihydrochloride] rule met

Another compound to look at: CCN1CCN(c2nc(-c3ccc(SC[C@@H](C)O)cc3)cc3ccsc23)CC1 [Example 444, dihydrochloride] rule not met

Another compound to look at: CCN1CCN(c2nc(-c3ccc(N4CCSCC4)nc3)cc3ccccc23)CC1 [Example 150, trihydrochloride] rule met

Another compound to look at: CCN1CCN(c2nc(-c3ccc(N4CCOCC4)nc3)cc3ccccc23)CC1 [Example 147, trihydrochloride] rule met

Another compound to look at: CCN1CCN(c2nc(-c3ccc(CCCO)c(Cl)c3)cc3ccsc23)CC1 [Example 257, Oxalate] rule met

Another compound to look at: CCN1CCN(c2nc(/C=C/c3ccc(OCCO)cc3)cc3ccoc23)CC1 rule met

Another compound to look at: CCN1CCN(c2nc(-c3ccc(S(=O)(=O)CCCO)cc3)cc3ccccc23)CC1 [Example 352, dihydrochloride] rule met

Another compound to look at: CCN1CCN(c2nc(-c3ccc(S(=O)(=O)N4CCOCC4)cc3)cc3ccccc23)CC1 [Example 75, Hydrochloride] rule met

Another compound to look at: CCN1CCN(c2nc(-c3ccc(S(=O)(=O)CC)cc3)cc3ccccc23)CC1 [Example 366, dihydrochloride] rule met

Another compound to look at: CCN1CCN(c2nc(-c3ccc(N4CCOCC4)cc3)cc3ccccc23)CC1 [Example 160, dihydrochloride] rule not met
